Each recorded value in this set is attributed to ChEMBL document CHEMBL3826974.

Experiment: Clearance in rat at 1 mg/kg, iv or 5 mg/kg, po
Format: ADME, organism-based
Details: in vivo
REPORTED METRIC: clearance (mL/min/kg)

* COC(=O)N[C@H](C(=O)Nc1ccccc1CC[C@@H]1CN[C@H](COC(=O)NCC(F)(F)F)CO1)C(c1ccccc1)c1ccccc1 | 36
* COC(=O)N[C@H](C(=O)Nc1ccccc1CC[C@@H]1CN[C@H](COC(=O)NCc2ccccc2)CO1)C(c1ccccc1)c1ccccc1 | 27

1. COC(=O)N[C@H](C(=O)Nc1cccc(F)c1CC[C@@H]1CN[C@H](COC(=O)NCC(F)(F)F)CO1)C(c1ccccc1)c1ccccc1
2. COC(=O)N[C@H](C(=O)Nc1ccccc1CC[C@@H]1CN[C@H](COC(=O)NC(C)C)CO1)C(c1ccccc1)c1ccccc1
3. COC(=O)N[C@H](C(=O)Nc1ccccc1CC[C@@H]1CN[C@H](COC(=O)N[C@H]2CCc3ccccc32)CO1)C(c1ccccc1)c1ccccc1
Ask | Sort the 3 molecules by clearance; largest first, smallest last. The response must list the labels following the requested ordering.
Reply | 3, 2, 1

###

Test: Clearance in rat at 1 mg/kg, iv or 5 mg/kg, po
Type: ADME, organism-based
Details: in vivo
REPORTED METRIC: clearance (mL/min/kg)

* COC(=O)N[C@H](C(=O)Nc1cncc(F)c1CC[C@@H]1CN[C@H](COC(=O)NCC(F)(F)F)CO1)C(c1ccccc1)c1ccccc1 | 11
* COC(=O)N[C@H](C(=O)Nc1ccccc1CC[C@@H]1CN[C@H](COC(=O)NCc2cccc(Cl)n2)CO1)C(c1ccccc1)c1ccccc1 | 45

1. COC(=O)N[C@H](C(=O)Nc1ccccc1CC[C@@H]1CN[C@H](COC(=O)N[C@@H]2CCc3ccccc32)CO1)C(c1ccccc1)c1ccccc1
2. COC(=O)N[C@H](C(=O)Nc1ccccc1CC[C@@H]1CN[C@H](COC(=O)NCc2ccc(F)cc2)CO1)C(c1ccccc1)c1ccccc1
Ask | Rank 1 against 2 by their clearance values and give the higher one. Pick one; state its label.
Reply | 1

###

Experiment: Oral bioavailability in rat at 5 mg/kg
Format: ADME, organism-based
Settings: in vivo
REPORTED METRIC: bioavailability (%)

- COC(=O)N[C@H](C(=O)Nc1cncc(F)c1CC[C@@H]1CN[C@H](COC(=O)NCC(F)(F)F)CO1)C(c1ccccc1)c1ccccc1: 15
- COC(=O)N[C@H](C(=O)Nc1ccccc1CC[C@@H]1CN[C@H](COC(N)=O)CO1)C(c1ccccc1)c1ccccc1: 16

P. COC(=O)N[C@H](C(=O)Nc1ccccc1CC[C@@H]1CN[C@H](COC(=O)NCC(F)(F)F)CO1)C(c1ccccc1)c1ccccc1
Q. COC(=O)N[C@H](C(=O)Nc1ccccc1CC[C@@H]1CN[C@H](COC(=O)NCc2ccc(F)cc2)CO1)C(c1ccccc1)c1ccccc1
Ask | Compare reported bioavailability values for P and Q . Which is lower? Pick one; state its label.
Reply | P

###

Test: Clearance in rat at 2 mg/kg, iv or 10 mg/kg, po
Assay type: ADME, organism-based
Conditions: in vivo
REPORTED METRIC: clearance (mL/min/kg)

- N[C@H](C(=O)Nc1cncc(F)c1CC[C@@H]1CN[C@H](COC(=O)NCC(F)(F)F)CO1)[C@@H](c1ccc(Cl)cc1)c1cc(F)cc(F)c1: 11
- N[C@H](C(=O)Nc1cncc(F)c1CC[C@@H]1CN[C@H](COC(=O)NCC(F)(F)F)CO1)[C@@H](c1ccc(F)cc1)c1cccc(F)c1: 16

I. N[C@H](C(=O)Nc1cccc(F)c1CC[C@@H]1CN[C@H](COC(=O)NCC(F)(F)F)CO1)[C@@H](c1ccc(F)cc1)c1cc(F)cc(F)c1
II. N[C@H](C(=O)Nc1cncc(F)c1CC[C@@H]1CN[C@H](COC(=O)NCC(F)(F)F)CO1)C(c1ccccc1)c1ccccc1
III. N[C@H](C(=O)Nc1cccc(F)c1CC[C@@H]1CN[C@H](COC(=O)NCC(F)(F)F)CO1)[C@@H](c1ccc(F)cc1)c1cccc(F)c1
Ask | Sort the 3 molecules by clearance; largest first, smallest last. The response must list the labels following the requested ordering.
Reply | III, I, II

###

Assay: Oral bioavailability in rat at 5 mg/kg
Assay type: ADME, organism-based
Conditions: in vivo
Measured bioavailability, listed per entry.

Here is how some compounds turned out for bioavailability.
• COC(=O)N[C@H](C(=O)Nc1ccccc1CC[C@@H]1CN[C@H](COC(=O)N[C@H]2CCc3ccccc32)CO1)C(c1ccccc1)c1ccccc1 = < 5%
• COC(=O)N[C@H](C(=O)Nc1ccccc1CC[C@@H]1CN[C@H](COC(=O)N[C@@H]2CCc3ccccc32)CO1)C(c1ccccc1)c1ccccc1 = < 5%

Next compound, bioavailability to be filled in.
Ask | What does the record list as bioavailability for COC(=O)N[C@H](C(=O)Nc1ccccc1CC[C@@H]1CN[C@H](COC(=O)NCc2ccccc2)CO1)C(c1ccccc1)c1ccccc1 ?
Reply | < 5%
